// provenance: ChEMBL document CHEMBL3988442

# Target Entity: Sialic acid-binding Ig-like lectin 9 (Homo sapiens) (UniProt Q9Y336)
# Sequence (Q9Y336 whole entry): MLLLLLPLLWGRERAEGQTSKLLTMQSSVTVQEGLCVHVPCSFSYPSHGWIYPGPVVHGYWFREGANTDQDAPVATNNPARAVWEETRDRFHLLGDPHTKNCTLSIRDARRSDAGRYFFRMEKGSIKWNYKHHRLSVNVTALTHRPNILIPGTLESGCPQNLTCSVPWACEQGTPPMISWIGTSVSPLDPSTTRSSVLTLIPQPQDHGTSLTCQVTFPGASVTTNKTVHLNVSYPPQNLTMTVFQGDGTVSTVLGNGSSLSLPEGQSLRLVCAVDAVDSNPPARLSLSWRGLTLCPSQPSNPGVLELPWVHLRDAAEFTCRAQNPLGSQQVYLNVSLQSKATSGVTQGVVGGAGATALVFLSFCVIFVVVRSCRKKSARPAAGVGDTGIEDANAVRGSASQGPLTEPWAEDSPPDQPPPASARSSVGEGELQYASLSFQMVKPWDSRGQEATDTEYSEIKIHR
# Experimental Details: Hs-Siglec9 ALPHAscreen SOP 20170721
# Design: scale not given: direction of the effect not stated beside the values
# Assay Setup: 10 µM
Measured Percent Effect values are reported for all entries that follow.
Number only, in %; omit the unit.

// known answers, use as guide
>>> number("CCOC(=O)N1CCN(c2nc(NCCCO)c3ccccc3n2)CC1")
7.39
>>> number("COCCc1noc(CNCC2CCCN2c2cccnn2)n1 (stereo unspecified)")
-5.52
>>> number("COc1c(C2CCCN2C(=O)c2c[nH]c3ncccc23)c(C)nn1C (stereo unspecified)")
8.63
>>> number("CC(C)n1ncc2cc(NC(=O)N3CCC(N4CCCC4)C3)cnc21 (stereo unspecified)")
7.73
>>> number("Cc1cnn(CCNCc2nnc(C3CC3)o2)c1")
-7.5

// query Percent Effect value for entry O=C(O)CCc1cccc(C2CCCN2Cc2ccc(F)c(F)c2)n1 (stereo unspecified) 8.61
